Experiment: Brain distribution studies
Type: in vivo
Conditions: rat, brain / plasma, iv, 0.5 mg/mL/kg, 30 minutes later, area ratio brain/plasma
experimentalEndpoint: Kp at 0.5 h
Response field accepts a number only; no unit should be typed.

Query string: For C[C@H]1SC(N)=N[C@](C)(c2cc(NC(=O)c3cnc(C(F)F)cn3)ccc2F)[C@H]1F , write its Kp at 0.5 h.
Result string: 1.7

Query string: For C[C@]1(c2cc(NC(=O)c3ccc(C#N)cn3)ccc2F)N=C(N)O[C@H](CF)[C@@H]1OCC(F)(F)F , write its Kp at 0.5 h.
Result string: 1.1

Query string: For C[C@]1(c2cc(NC(=O)c3cnc(OCF)cn3)ccc2F)N=C(N)O[C@H](CF)[C@@H]1OCC(F)(F)F , write its Kp at 0.5 h.
Result string: 1

Query string: For COC[C@H]1SC(N)=N[C@](C)(c2cc(NC(=O)c3cnc(OCF)cn3)ccc2F)[C@H]1F , write its Kp at 0.5 h.
Result string: 1

Query string: For C[C@H]1SC(N)=N[C@](C)(c2cc(NC(=O)c3ccc(F)cn3)ccc2F)[C@H]1F , write its Kp at 0.5 h.
Result string: 1.8

Query string: For C[C@]1(c2nc(NC(=O)c3ccc(C#N)cn3)ccc2F)N=C(N)S[C@H](CF)[C@@H]1F , write its Kp at 0.5 h.
Result string: 2

Query string: For CO[C@H]1[C@@H](CF)OC(N)=N[C@]1(C)c1cc(NC(=O)c2cnc(OCF)cn2)ccc1Cl , write its Kp at 0.5 h.
Result string: 0.51

###

Exercise: for every item that follows, state its recorded BA_%.
Assay: Pharmacokinetic study (oral absorption)
Type: in vivo
Conditions: bioavailability from AUCs of oral and intravenous administration; mouse or rat
The reply should be a number in %, with the unit left off.

Query string: For CO[C@H]1[C@@H](CF)OC(N)=N[C@]1(C)c1cc(NC(=O)c2cnc(OCF)cn2)ccc1F , write its BA_%.
Result string: 44

Query string: For C[C@@]1(c2cc(NC(=O)c3ccc(C#N)cn3)ccc2F)C[C@@](C)(C(F)(F)F)OC(N)=N1 , write its BA_%.
Result string: 32.8

Query string: For CC(F)(F)[C@H]1OC(N)=N[C@](C)(c2cc(NC(=O)c3ccc(C#N)cn3)ccc2F)[C@H]1F , write its BA_%.
Result string: 36.2

Query string: For C[C@H]1SC(N)=N[C@](C)(c2nc(NC(=O)c3ccc(C#N)cn3)ccc2F)[C@H]1F , write its BA_%.
Result string: 66.7

###

Assay: Pharmacokinetic study (oral absorption)
Assay type: in vivo
Conditions: bioavailability from AUCs of oral and intravenous administration; mouse or rat
experimentalEndpoint: BA_% (%)
The reply should be a number in %, with the unit left off.

Query string: For C[C@H]1SC(N)=N[C@](C)(c2cc(NC(=O)c3ccc(F)cn3)ccc2F)[C@H]1F , write its BA_%.
Result string: 78.7

Query string: For Cc1cc(C#N)cnc1C(=O)Nc1ccc(F)c([C@@]2(C)N=C(N)S[C@H](C)[C@@H]2F)c1 , write its BA_%.
Result string: 39.1

Query string: For C[C@H](F)[C@H]1OC(N)=N[C@](C)(c2cc(NC(=O)c3ccc(C#N)cn3)ccc2F)[C@H]1F , write its BA_%.
Result string: 47.3

Query string: For C[C@H]1SC(N)=N[C@](C)(c2nc(NC(=O)c3cnc(OCF)cn3)ccc2F)[C@H]1F , write its BA_%.
Result string: 38.8

Query string: For C[C@]1(c2cc(NC(=O)c3cnc(OCF)cn3)ccc2F)N=C(N)O[C@H](CF)[C@@H]1OCC(F)(F)F , write its BA_%.
Result string: 47.4

Query string: For C[C@H]1[C@@H](C(F)(F)F)OC(N)=N[C@]1(C)c1cc(NC(=O)c2cnc(OCF)cn2)ccc1F , write its BA_%.
Result string: 35.2

Query string: For C[C@]1(c2nc(NC(=O)c3ccc(C#N)cn3)ccc2F)N=C(N)S[C@H](CF)[C@@H]1F , write its BA_%.
Result string: 83.2

###

Molecular target: human ether-a-go-go related gene (hERG) channel (Homo sapiens)
Construct: expressed in transfected cells; host or cells: CHO cells
Sequence (Q12809 whole entry): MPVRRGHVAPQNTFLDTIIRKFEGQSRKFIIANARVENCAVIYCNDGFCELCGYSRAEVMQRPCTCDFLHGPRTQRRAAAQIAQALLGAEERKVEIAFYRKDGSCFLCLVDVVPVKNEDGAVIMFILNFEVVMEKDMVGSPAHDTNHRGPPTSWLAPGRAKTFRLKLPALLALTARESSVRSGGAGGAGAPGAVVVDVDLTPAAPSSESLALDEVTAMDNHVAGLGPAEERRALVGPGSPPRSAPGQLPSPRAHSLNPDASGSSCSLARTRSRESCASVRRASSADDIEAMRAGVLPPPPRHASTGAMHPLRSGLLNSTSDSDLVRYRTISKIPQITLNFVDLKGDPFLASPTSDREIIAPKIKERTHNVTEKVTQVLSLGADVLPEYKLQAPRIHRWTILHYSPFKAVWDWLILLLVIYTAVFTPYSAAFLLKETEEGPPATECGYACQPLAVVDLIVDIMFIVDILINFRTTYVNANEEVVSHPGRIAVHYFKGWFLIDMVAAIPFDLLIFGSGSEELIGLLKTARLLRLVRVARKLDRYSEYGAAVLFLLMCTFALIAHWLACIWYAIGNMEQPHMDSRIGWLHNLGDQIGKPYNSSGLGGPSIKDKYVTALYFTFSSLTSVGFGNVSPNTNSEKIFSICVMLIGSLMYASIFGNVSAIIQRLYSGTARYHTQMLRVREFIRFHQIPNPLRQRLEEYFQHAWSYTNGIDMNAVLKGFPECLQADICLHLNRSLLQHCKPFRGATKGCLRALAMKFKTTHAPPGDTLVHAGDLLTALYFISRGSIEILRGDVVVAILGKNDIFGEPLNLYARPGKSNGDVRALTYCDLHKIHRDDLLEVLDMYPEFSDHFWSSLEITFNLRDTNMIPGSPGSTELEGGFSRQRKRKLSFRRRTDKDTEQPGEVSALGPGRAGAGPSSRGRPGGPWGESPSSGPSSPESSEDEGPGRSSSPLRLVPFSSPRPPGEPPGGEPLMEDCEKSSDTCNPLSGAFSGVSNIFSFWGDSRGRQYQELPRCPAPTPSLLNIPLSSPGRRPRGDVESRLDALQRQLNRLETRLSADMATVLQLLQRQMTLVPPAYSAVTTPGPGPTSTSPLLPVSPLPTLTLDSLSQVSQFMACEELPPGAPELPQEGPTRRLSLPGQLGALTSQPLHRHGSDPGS
Assay: hERG test
Type: cell-based
Details: % inhibition of IKr tail peak current at 3 uM; CHO cells expressing hERG
Source text: For the purpose of assessing risk of an electrocardiogram QT interval prolongation, effects on delayed rectifier K+ current (IKr), which plays an important role in the ventricular repolarization process of the compound of the present invention, was studied using CHO cells expressing human ether-a-go-go related gene (hERG) channel. A cell was retained at a membrane potential of […] by whole cell patch clamp method using an automated patch clamp system (QPatch:Sophion Bioscience A/S). […]
Note to self: values exactly at 30% are class 1. So hERG_3 uM_% at or above 30% is class 1, below is class 0.

Query string: Is it the case that CC(F)(F)[C@H]1OC(N)=N[C@](C)(c2cc(NC(=O)c3ccc(C#N)cn3)ccc2F)[C@H]1F [Compound I-40] has hERG_3 uM_% reaching or exceeding 30%?
Result string: class 1

Query string: Is it the case that CO[C@H]1[C@@H](CF)OC(N)=N[C@]1(C)c1cc(NC(=O)c2ccc(Cl)cn2)ccc1Cl [Compound I-21] has hERG_3 uM_% reaching or exceeding 30%?
Result string: class 1

Query string: Is it the case that C[C@]1(c2cc(NC(=O)c3cnc(OCF)cn3)ccc2F)N=C(N)O[C@H](C(F)(F)C2CC2)[C@@H]1F [Compound I-82] has hERG_3 uM_% reaching or exceeding 30%?
Result string: class 0

Query string: Is it the case that C[C@]1(c2nc(NC(=O)c3ccc(C#N)cn3)ccc2F)N=C(N)S[C@H](CF)[C@@H]1F [Compound I-4] has hERG_3 uM_% reaching or exceeding 30%?
Result string: class 1

Query string: Is it the case that C[C@]1(c2cc(NC(=O)c3cnc(OCF)cn3)ccc2F)N=C(N)O[C@H](CF)[C@@H]1OCC(F)(F)F [Compound I-12] has hERG_3 uM_% reaching or exceeding 30%?
Result string: class 1

Query string: Is it the case that C[C@H]1SC(N)=N[C@](C)(c2cc(NC(=O)c3coc(CF)n3)ccc2F)[C@H]1F [Compound I-49] has hERG_3 uM_% reaching or exceeding 30%?
Result string: class 0

Query string: Is it the case that C[C@H]1[C@@H](C(F)(F)F)OC(N)=N[C@]1(C)c1cc(NC(=O)c2ccc(C#N)cn2)ccc1F [Compound I-28] has hERG_3 uM_% reaching or exceeding 30%?
Result string: class 1

Query string: Is it the case that C[C@H]1SC(N)=N[C@](C)(c2cc(NC(=O)c3cnc(OCC(F)(F)F)cn3)ccc2F)[C@H]1F [Compound I-46] has hERG_3 uM_% reaching or exceeding 30%?
Result string: class 1

###

Experiment: Solubility test
Format: physicochemical
Conditions: JP 2nd fluid B, pH 6.8, aqueous buffer, kinetic from dmso stock; read-out: JP2_μM
experimentalEndpoint: solubility kinetic at 1 h (µM)
The reply should be a number in µM, with the unit left off.

Query string: For CC(F)(F)[C@H]1OC(N)=N[C@](C)(c2cc(NC(=O)c3cnc(OCC(F)(F)F)cn3)ccc2F)[C@H]1F [Compound I-75] , write its solubility kinetic at 1 h.
Result string: 3

Query string: For C[C@]1(c2cc(NC(=O)c3cnc(OCF)cn3)ccc2F)N=C(N)S[C@H](CO)[C@@H]1F [Compound I-109] , write its solubility kinetic at 1 h.
Result string: 19

Query string: For CCOc1cnc(C(=O)Nc2ccc(F)c([C@@]3(C)N=C(N)S[C@H](C)[C@@H]3F)c2)cn1 [Compound I-84] , write its solubility kinetic at 1 h.
Result string: 49.4

Query string: For CC#CCOc1cnc(C(=O)Nc2ccc(F)c([C@@]3(C)N=C(N)O[C@H](C(C)(F)F)[C@@H]3F)c2)cn1 [Compound I-76] , write its solubility kinetic at 1 h.
Result string: 8.2

Query string: For C[C@H]1SC(N)=N[C@](C)(c2cc(NC(=O)c3ccc(OCC(F)(F)F)cn3)ccc2F)[C@H]1F [Compound I-54] , write its solubility kinetic at 1 h.
Result string: 38.6

Query string: For CC[C@H]1SC(N)=N[C@](C)(c2cc(NC(=O)c3ncc(C#N)cc3C)ccc2F)[C@H]1F [Compound I-68] , write its solubility kinetic at 1 h.
Result string: 9.1

Query string: For CC(F)(F)[C@H]1OC(N)=N[C@](C)(c2cc(NC(=O)c3cnc(OCC(F)F)cn3)ccc2F)[C@H]1F [Compound I-77] , write its solubility kinetic at 1 h.
Result string: 11.1

###

Exercise: for every item that follows, state its recorded Kp at 2 h.
Biological target: P-gp (Mus musculus)
Construct: from tissue; host or cells: living mice (brain/plasma distribution), wild type versus mdr1a (−/−)
Sequence (P21447 whole entry): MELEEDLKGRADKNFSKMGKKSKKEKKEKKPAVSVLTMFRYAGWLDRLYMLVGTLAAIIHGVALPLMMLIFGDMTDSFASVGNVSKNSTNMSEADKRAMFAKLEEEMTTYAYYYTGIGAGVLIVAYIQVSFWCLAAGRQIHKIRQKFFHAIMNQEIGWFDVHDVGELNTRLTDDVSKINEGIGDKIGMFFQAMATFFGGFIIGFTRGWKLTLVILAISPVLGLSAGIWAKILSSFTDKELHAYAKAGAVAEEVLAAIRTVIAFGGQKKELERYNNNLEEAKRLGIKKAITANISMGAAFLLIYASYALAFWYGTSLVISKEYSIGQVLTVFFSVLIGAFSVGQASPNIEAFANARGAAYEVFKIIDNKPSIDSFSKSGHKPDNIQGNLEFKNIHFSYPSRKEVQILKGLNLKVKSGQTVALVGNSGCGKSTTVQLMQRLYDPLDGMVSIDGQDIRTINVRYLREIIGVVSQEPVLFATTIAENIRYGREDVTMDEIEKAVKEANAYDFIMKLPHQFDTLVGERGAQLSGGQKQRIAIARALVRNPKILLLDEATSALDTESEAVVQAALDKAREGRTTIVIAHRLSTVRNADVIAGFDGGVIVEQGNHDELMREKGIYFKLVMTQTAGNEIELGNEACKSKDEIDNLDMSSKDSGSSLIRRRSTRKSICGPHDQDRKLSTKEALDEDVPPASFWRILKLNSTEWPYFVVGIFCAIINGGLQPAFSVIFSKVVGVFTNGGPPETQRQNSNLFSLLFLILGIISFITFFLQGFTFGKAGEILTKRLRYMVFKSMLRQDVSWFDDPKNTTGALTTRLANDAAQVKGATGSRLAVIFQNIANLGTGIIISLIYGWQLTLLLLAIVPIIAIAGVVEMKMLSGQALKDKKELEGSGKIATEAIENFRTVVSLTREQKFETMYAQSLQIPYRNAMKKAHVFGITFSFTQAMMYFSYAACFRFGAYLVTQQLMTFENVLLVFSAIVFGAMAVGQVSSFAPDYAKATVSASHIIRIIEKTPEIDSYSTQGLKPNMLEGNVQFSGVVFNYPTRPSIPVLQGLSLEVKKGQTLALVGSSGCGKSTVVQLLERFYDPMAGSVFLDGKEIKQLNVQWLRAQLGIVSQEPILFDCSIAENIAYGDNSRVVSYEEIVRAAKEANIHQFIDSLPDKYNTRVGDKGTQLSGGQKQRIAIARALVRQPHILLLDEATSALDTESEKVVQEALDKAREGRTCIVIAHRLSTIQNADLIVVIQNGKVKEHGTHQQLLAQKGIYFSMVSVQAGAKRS
Assay: P-gp substrate test using mdr1a (−/−) B6 mice
Assay type: in vivo
Settings: mdr1a (−/−) B6 (KO) and C57BL/6J (wild), mouse, brain / plasma, po, 2 mg/kg, Kp in KO mouse (mdr1a (−/−) B6) / Kp in Wild mouse, read-out: Kp ratio (2 mg/kg, po, 2 hr)
Protocol: Animal: mdrla (−/−) B6 mice (KO mouse) or […] mice (Wild mouse) 1. Animals may be fed prior to dosing of the compounds of the present invention. 2. […] Plasma and tissue (e.g. brain) samples were prepared using protein prceipitation and analyzed by LC/MS/MS. The analytical method was calibrated by including a standard curve constructed with blank plasma or brain samples and known quantities of analyte. […]
Response field accepts a number only; no unit should be typed.

Query string: For C[C@H]1SC(N)=N[C@](C)(c2cc(NC(=O)c3cnc(OCC(F)F)cn3)ccc2F)[C@H]1F , write its Kp at 2 h.
Result string: 5.57

Query string: For CC(F)(F)[C@H]1OC(N)=N[C@](C)(c2cc(NC(=O)c3ccc(C#N)cn3)ccc2F)[C@H]1F , write its Kp at 2 h.
Result string: 6.97

Query string: For COc1cnc(C(=O)Nc2ccc(F)c([C@@]3(C)N=C(N)O[C@H](C(C)(F)F)[C@@H]3F)c2)cn1 , write its Kp at 2 h.
Result string: 2.07

Query string: For C[C@]1(c2nc(NC(=O)c3ccc(C#N)cn3)ccc2F)N=C(N)S[C@H](CF)[C@@H]1F , write its Kp at 2 h.
Result string: 2.92
